The following molecules are shown together with reported photoluminescence quantum yield values.
Experiment: photoluminescence quantum yield (fraction); solvent given as SMILES
Conditions: in O=P(c1ccccc1)(c1ccccc1)c1ccccc1Oc1ccccc1P(=O)(c1ccccc1)c1ccccc1

smiles structure | photoluminescence quantum yield
CC1(C)c2ccccc2N(c2ccccc2)c2ccc(-c3ccc(C(=O)c4ccc(-c5ccc6c(c5)C(C)(C)c5ccccc5N6c5ccccc5)cc4)cc3)cc21 | 0.53
N#Cc1cccc(C#N)c1-c1ccc(N2c3ccccc3C3(c4ccccc42)c2ccccc2N(c2ccc(-c4c(C#N)cccc4C#N)cc2)c2ccccc23)cc1 | 0.65
c1ccc(-c2nc(-c3ccccc3)nc(-c3ccc(-n4c5ccccc5c5c6c(ccc54)C4(c5ccccc5-c5ccccc54)c4ccccc4-6)cc3)n2)cc1 | 0.45
O=c1c2cc(-n3c4ccccc4c4ccccc43)ccc2sc2ccc(-n3c4ccccc4c4ccccc43)cc12 | 0.412
O=C(c1ccc(-n2c3ccccc3c3cc(-n4c5ccccc5c5ccccc54)ccc32)cc1)c1ccc(-n2c3ccccc3c3cc(-n4c5ccccc5c5ccccc54)ccc32)cn1 | 0.73
c1ccc(-c2nc(-c3ccccc3)nc(-c3ccc(-n4c5ccccc5c5c6oc7ccccc7c6ccc54)cc3)n2)cc1 | 0.853
F[B-]1(F)Oc2ccccc2-c2cc(-n3c4ccc(-c5ccccc5)cc4c4cc(-c5ccccc5)ccc43)cc[n+]21 | 0.7

###

Test: photoluminescence quantum yield (fraction); solvent given as SMILES
Conditions: in Cc1ccccc1
The following compounds are shown together with reported photoluminescence quantum yield values.
measured property: photoluminescence quantum yield

smiles structure | measured property | measured result
CCCCCCCCCCCCCCCCOc1cc(C#Cc2ccc3ccccc3c2-c2c(C#Cc3cc(OCCCCCCCCCCCCCCCC)c(C#Cc4ccc(C=C(C#N)C#N)cc4)cc3OCCCCCCCCCCCCCCCC)ccc3ccccc23)c(OCCCCCCCCCCCCCCCC)cc1C#Cc1ccc(C=C(C#N)C#N)cc1 | photoluminescence quantum yield | 0.95
CC(C)(C)c1ccc(N2c3ccc(C(C)(C)C)cc3B3c4cc(C(C)(C)C)ccc4N(c4ccc(C(C)(C)C)cc4)c4cc(-n5c6ccc(C(C)(C)C)cc6c6cc(C(C)(C)C)ccc65)cc2c43)cc1 | photoluminescence quantum yield | 0.975
CC1=CC(C)=[N+]2C1=C(c1c3ccccc3c(-c3ccccc3)c3ccccc13)c1c(C)cc(C)n1[B-]2(F)F | photoluminescence quantum yield | 0.79
F[B-]1(F)n2cccc2C(c2ccc(-c3c4ccccc4c(-c4ccccc4)c4ccccc34)cc2)=C2C=CC=[N+]21 | photoluminescence quantum yield | 0.036
O=C1c2ccc(N(c3ccccc3)c3ccccc3)cc2C(=O)c2ccc(N(c3ccccc3)c3ccccc3)cc21 | photoluminescence quantum yield | 0.2
CCN1c2ccc(/C=N/Nc3ccccn3)cc2Sc2cc(-c3ccc(C#N)cc3)ccc21 | photoluminescence quantum yield | 0.33

###

The following compounds are shown together with reported photoluminescence quantum yield values.
Experiment: photoluminescence quantum yield (fraction); solvent given as SMILES
Details: in CC#N
measured property: photoluminescence quantum yield

compound | measured result
O=S(=O)(c1ccc(-c2ccc(-c3nc4c5ccccc5c5ccccc5c4n3-c3ccccc3)cc2)cc1)c1ccc(-c2ccc(-c3nc4c5ccccc5c5ccccc5c4n3-c3ccccc3)cc2)cc1 | 0.579
COc1ccc(-c2csc(-c3ccncc3)n2)cc1 | 0.002
CCN(CC)c1ccc(/C=C/c2ccc(-c3ccc(/C=C/c4ccc(N(CC)CC)cc4)s3)s2)cc1 | 0.13
CCCCCCN(CCCCCC)c1ccc(C#Cc2ccc(C#N)cc2)cc1 | 0.005
CC1=N/C(=C\c2ccccc2N)C(=O)N1C | 0.004
CC1=N/C(=C\c2cccc(N(C)C)c2)C(=O)N1CCO | 0.02
C(C#Cc1ccc2ccc3cccc4ccc1c2c34)#Cc1cccc2ccccc12 | 0.73
c1ccc(-c2nc(-c3ccc(-c4cccs4)s3)[nH]c2-c2ccccc2)cc1 | 0.24
CN(C)c1ccc2c(c1)-c1ccccc1C2=O | 0.083
COC(=O)C(NC(=O)OC(C)(C)C)c1ccc2oc(-c3ccc(N(C)C)cc3OC)nc2c1 (stereo unspecified) | 0.88
COc1ccc(-c2cc(-c3ccc(OC)cc3)c3c(N)nc(N4CCCC4)c(C#N)c3n2)cc1 | 0.095
NCc1ccc2ccc3cccc4ccc1c2c34 | 0.52
CN1/C(=C\C=C\C2=C3C=CC(c4ccccc4)=[N+]3[B-](F)(F)n3c2ccc3-c2ccccc2)Sc2ccccc21 | 0.1
CC(C)[Si]1(C(C)C)c2cc(C=O)ccc2-c2ccc(N(C)C)cc21 | 0.81
CN(C)c1ccc(/C=C/C=N/N=C/c2ccc3ccc4cccc5ccc2c3c45)cc1 | 0.032
CN(C)c1ccc(/C=C/C(=O)O)cc1 | 0.0205
COc1cccc(-c2[nH]c(=O)n3c2-c2ccccc2C3=O)c1O | 0.51
COc1cc(OC)cc(-c2ccc(-c3ccc(C#N)s3)s2)c1 | 0.11
Cc1ccc2nc3c(nc2c1)c(-c1ccccc1)nn3C | 0.31
CCCCCCN(c1ccccc1)c1ccc2c(c1)C(CC)(CC)c1cc(/C=C/c3ccc(/C=C(\C#N)C(=O)O)s3)ccc1-2 | 0.105
CN(C)c1ccc(-c2ccc(-c3nc(C#N)c(C#N)n3C)cc2)cc1 | 0.013

###

Experiment: photoluminescence quantum yield (fraction); solvent given as SMILES
Conditions: in CCOC(C)=O

smiles structure | photoluminescence quantum yield
CCn1c2ccccc2c2cc(C#Cc3cc(C#Cc4ccc5c(c4)c4ccccc4n5CC)nc(SC)n3)ccc21 | 0.62
COc1cc(OC)cc(-c2ccc(-c3ccc(C#N)s3)s2)c1 | 0.09
CCN(CC)c1ccc2cc(/C(Cl)=C/C=C/C(=C(C#N)C#N)c3ccc4c(c3)c3ccccc3n4CC)c(=O)oc2c1 | 0.052
F[B-]1(F)n2c(NCc3ccccc3)ccc2C(c2c(Cl)cccc2Cl)=C2C=CC(NCc3ccccc3)=[N+]21 | 0.44
CN1C(=O)/C(=C/c2ccncc2)N=C1/C=C/c1ccncc1 | 0.041
COc1ccc(C#Cc2ccc(C#N)cc2)cc1 | 0.08
O=C1/C(=C\c2ccc(N(c3ccccc3)c3ccccc3)cc2)S(=O)(=O)c2ccccc21 | 0.036
COc1ccc(-c2nc(C(C)=O)c(C)o2)cc1 | 0.134
C#CCNC1=C2C(C)=CC(C)=[N+]2[B-](F)(F)n2c(C)cc(C)c21 | 0.084
CN(C)c1ccc(C#Cc2ccccc2)cc1 | 0.25

###

Experiment: photoluminescence quantum yield (fraction); solvent given as SMILES
Conditions: in CN(C)C=O
The following compounds are shown together with reported photoluminescence quantum yield values.

smiles structure | photoluminescence quantum yield
CCN(CC)c1ccc2cc(-c3cc(SC)c(C#N)c(=O)o3)c(=O)oc2c1 | 0.4
COc1cnc(-c2cc[n+](C3=C(F)C(F)(F)C(F)(F)[C-]3F)cc2)s1 | 0.04
N#C/C(=C/Nc1ccc(C#N)cc1)c1nc(-c2ccccc2)cs1 | 0.0001
CCn1c2ccccc2c2cc(C#Cc3cc(C#Cc4ccc5c(c4)c4ccccc4n5CC)nc(SC)n3)ccc21 | 0.56
CCC1=C(C)C2=C(c3c4ccccc4c(C)c4ccccc34)c3c(C)c(CC)c(C)n3[B-](F)(F)[N+]2=C1C | 0.111

###

Test: photoluminescence quantum yield (fraction); solvent given as SMILES
Conditions: in CCCCCC
Returns Yes if the recorded photoluminescence quantum yield is greater than or equal to 0.3, and No otherwise.

smiles structure | group
COc1ccc(C#Cc2ccc(C#N)cc2)cc1 | No
c1ccc2c(c1)CCc1ccccc1N2 | No
CCC1(CC)c2cc(/C=C/c3cc(C#N)c(/C=C/c4ccc5c(c4)C(CC)(CC)c4cc(N6c7ccccc7Sc7ccccc76)ccc4-5)cc3C#N)ccc2-c2ccc(N3c4ccccc4Sc4ccccc43)cc21 | No
COC(=O)/C=C/c1ccc2ccc3cccc4ccc1c2c34 | Yes
CCCCOc1ccc2cc(-c3ccc(C)cc3)c(=O)oc2c1 | Yes
Cc1cccc2[n+]1[B-](F)(F)n1c(c3cccc4cccc1c43)=N2 | Yes
CCCCCCCCCCCCNc1cccc2[n+]1[B-](F)(F)n1c(c3cccc4cccc1c43)=N2 | Yes
CC1=N/C(=C\c2cccc(N(C)C)c2)C(=O)N1CCO | Yes
CC(C)[Si](C#Cc1c2ccccc2c(C#C[Si](C(C)C)(C(C)C)C(C)C)c2nc3c(ccc4cc5ccccc5cc43)nc12)(C(C)C)C(C)C | No
CCCCc1ccc2ccc3cccc4ccc1c2c34 | Yes

###

Assay: photoluminescence quantum yield (fraction); solvent given as SMILES
Settings: in CO

compound | photoluminescence quantum yield
CCCSc1ccc2n1[B-](F)(F)[N+]1=C(SC#N)C=CC1=C2c1ccccc1 | 0.16
C(=C\N1CCCC1)/c1nc2ccccc2nc1-c1ccccc1 | 0.006
Cc1ccc2nnn(-c3c(C#N)c4c(N)ncnc4n3[C@H]3C[C@H](O)[C@@H](CO)O3)c2c1 | 0.007
COc1ccc2n1[B-](F)(F)[N+]1=CC=CC1=C2c1ccccc1 | 0.02
COCCOCCOCCOCCOc1cc(C=O)c(OCCOCCOCCOCCOC)cc1C=O | 0.22
CCCCCCCC1=C(C)C(=O)n2c1cc1[nH]c(C(=O)OC)c(C)c1c2=O | 0.73
CCCCCCN(CCCCCC)c1ccc(C#Cc2ccc([N+](=O)[O-])cc2)cc1 | 0.0016
CCC1=C(C)C2=C(C)c3cc(I)c(I)n3[B-](F)(F)[N+]2=C1C | 0.13
CCCSc1ccc2n1[B-](F)(F)[N+]1=CC=CC1=C2c1ccccc1 | 0.02
COc1ccc2cc([C@H](C)C(=O)O)ccc2c1 | 0.18
F[B-]1(F)n2c(NCc3ccccc3)ccc2C(c2c(Cl)cccc2Cl)=C2C=CC(NCc3ccccc3)=[N+]21 | 0.5
NS(=O)(=O)c1ccc(N2N=C(c3ccc(O)cc3)CC2c2ccc(F)cc2)cc1 (stereo not given) | 0.36
O=C1C2=C(O[B-](F)(F)[n+]3c2ccc2ccccc23)c2ccc(N3CCOCC3)c3cccc1c23 | 0.45
C/C(=C\c1ccc(Cl)cc1)c1nc2ccccc2s1 | 0.005
F[B-]1(F)N2C(=Nc3cccc4cccc2c34)c2cccc[n+]21 | 0.007
CCCCCCc1cc(B(c2c(C)cc(C)cc2C)c2c(C)cc(C)cc2C)c(-c2sc(CCCCCC)cc2P(=O)(c2ccccc2)c2ccccc2)s1 | 0.17
CN(C)c1ccc2nc(-c3ccc(/C=N/c4ccccc4)cc3)sc2c1 | 0.067
NNC(=O)NNN1C(=O)c2cc(S(=O)(=O)[O-])cc3c(N)c(S(=O)(=O)[O-])cc(c23)C1=O | 0.25
C(=C\c1cnccn1)/c1ccc2nccnc2c1 | 0.12
COC(=O)C(Cc1ccc2oc(-c3ccc(N(c4ccccc4)c4ccccc4)cc3)nc2c1)NC(=O)OC(C)(C)C (stereo not given) | 0.42
